Molecular target: T1, recombinant human B7-H4-huIgG1 (human)
T1 construct: also called B7-H4-extracellular domain (ECD)
T1 sequence (chain, as listed by the source limits assumed): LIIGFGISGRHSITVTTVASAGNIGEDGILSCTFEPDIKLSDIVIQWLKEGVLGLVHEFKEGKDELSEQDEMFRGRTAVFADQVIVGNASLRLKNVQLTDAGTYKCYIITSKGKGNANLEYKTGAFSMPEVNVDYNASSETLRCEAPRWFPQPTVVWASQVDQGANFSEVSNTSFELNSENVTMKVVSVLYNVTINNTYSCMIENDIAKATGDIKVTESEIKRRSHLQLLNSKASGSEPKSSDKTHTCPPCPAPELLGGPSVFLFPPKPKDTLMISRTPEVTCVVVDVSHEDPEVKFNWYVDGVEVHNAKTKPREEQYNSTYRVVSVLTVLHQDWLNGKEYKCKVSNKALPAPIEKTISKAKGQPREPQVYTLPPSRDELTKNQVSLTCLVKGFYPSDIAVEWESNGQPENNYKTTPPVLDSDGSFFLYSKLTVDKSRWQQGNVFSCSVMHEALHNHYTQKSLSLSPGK
Experiment: BLI, antigen on Protein A tips;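 note: Anti-B7-H4 antibodies assessed for affinity toward the B7-H4 extracellular domain using biolayer interferometry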
REPORTED_ENDPOINT: pKd
pKd is defined as minus the log10 of a concentration measured in mol/L.

[ask] Give the value of pKd reported for the following: B7-H4 antibody 15495 (antibody, human IgG1, kappa, V domains shown, human IgG1/kappa) VH: QVQLVQSGAEVKKPGSSVKVSCKASGGTFSSYAISWVRQAPGQGLEWMGGIIPIFGTASYAQKFQGRVTITADESTSTAYMELSSLRSEDTAVYYCARQQYDGRRYFGLWGRGTLVTVSS VL: EIVMTQSPATLSVSPGERATLSCRASQSVSSNLAWYQQKPGQAPRLLIYSASTRATGIPARFSGSGSGTEFTLTISSLQSEDFAVYYCQQVNVWPPTFGGGTKVEIKR
[reply] 8.03
